Test system: HT-29 cells
Assay: Inhibition on HT-29 cell proliferation (CellTiter-Glo)
Format: cell-based
Settings: Homo sapiens, HT-29 cells (TP53 R273H mutation), 120 hours
pIC50: −log10 of the molar value.

{"COMPOUND": "CCS(=O)(=O)Nc1ccc(C(=O)Nc2cc3c(c(N4CCC(F)(F)CC4)c2)OCCO3)c(N2CCC3(CC2)CC3)c1 [Example 14]", "pIC50": 8.04}
{"COMPOUND": "CCS(=O)(=O)Nc1ccc(C(=O)Nc2cc(N3CC(F)(F)C3)c3nn(C)cc3c2)c(N2CCC3(CC2)CC3)c1 [Example 24]", "pIC50": 8.39}
{"COMPOUND": "CCS(=O)(=O)Nc1ccc(C(=O)Nc2cc(N3CCC(F)(F)CC3)c3nn(C)cc3c2)c(N2CCC3(CC2)CC3)c1 [Example 18]", "pIC50": 8.11}
{"COMPOUND": "CN1Cc2cc(NC(=O)c3ccc(NS(=O)(=O)CCO)cc3N3CCC4(CC3)CC4)cc(N3CCC(F)(F)CC3)c2C1=O [Example 28]", "pIC50": 7.72}
{"COMPOUND": "CCS(=O)(=O)Nc1ccc(C(=O)Nc2cc3c(c(N4CCC(F)(F)CC4)c2)OCCC3)c(N2CCC3(CC2)CC3)c1 [Example 15]", "pIC50": 7.63}
{"COMPOUND": "CCS(=O)(=O)Nc1ccc(C(=O)Nc2cc3c(c(N4CCCCC4)c2)OCC3)c(N2CCC3(CC2)CC3)c1 [Example 3]", "pIC50": 8.18}
